- experiment summary: Drug exposure in plasma of triple transgenic C57BL/6 mouse alzheimer disease model at 30 mg/kg,po and measured after 2 hrs
- Type: ADME, organism-based
measured parameter: concentration at 2 h (nM)
Dear colleague, please return just the value in nM, with no unit written.

Exercise: Would you kindly share the measured concentration at 2 h for CCOc1ccncc1NC(=O)c1ccnc(NC(=O)C2CC2)c1 ?
Key: 47

----------
- experiment summary: Permeability of compound at pH 5.5 by PAMPA assay
- Type: ADME
- experimental parameters: read-out: permeability
Provide the reported Papp of each item.
Dear colleague, please return just the value in ×10⁻⁶ cm/s, with no unit written.

Exercise: Would you kindly share the measured Papp for O=C(Nc1cnccc1-c1ccccc1)c1ccnc(NC(=O)C2CC2)c1 ?
Key: 52.6

Exercise: Would you kindly repeat that for O=C(Nc1cnccc1-c1ccc(Cl)cc1)c1ccnc(NC(=O)C2CC2)c1 ?
Key: 90.4

----------
Provide the reported Papp B→A of each item.
- experiment summary: Permeability across basolateral to apical side in human Caco2 cells
- Format: ADME, cell-based
- experimental parameters: Caco-2, read-out: permeability
Dear colleague, please return just the value in ×10⁻⁶ cm/s, with no unit written.

Exercise: Would you kindly share the measured Papp B→A for O=C(Nc1cnccc1-c1ccc(Cl)cc1)c1ccnc(NC(=O)C2CC2)c1 ?
Key: 27.9

Exercise: Would you kindly repeat that for O=C(Nc1cnccc1-c1ccccc1)c1ccnc(NC(=O)C2CC2)c1 ?
Key: 30.1

----------
- experiment summary: Ratio of drug concentration in brain to plasma of triple transgenic C57BL/6 mouse alzheimer disease model at 30 mg/kg,po and measured after 2 hrs
- Assay type: ADME, organism-based
measured parameter: Kp at 2 h
# respond with the number and nothing more

Exercise: Would you kindly share the measured Kp at 2 h for O=C(Nc1cnccc1-c1ccccc1)c1ccnc(NC(=O)C2CC2)c1 ?
Key: 0.2
